Test system: U251
assay: NCI human tumor cell panel: U251 (CNS Cancer)
Type: cell-based
measurement.context: U-251, U251, read-out: Log10 TGI (converted)
Please provide measured IC (TGI) for the entries that follow.
Give bare numbers, in µM.

Here are 5 compounds together with their reported answers.
> print(dat)
                                   molecule  value.unit  recorded.result
1      OCc1ccc(-c2ccc(-c3ccc(CO)[se]3)s2)s1          µM             20.9
2  OCc1ccc(-c2ccc(-c3ccc(CO)[se]3)[se]2)[se]1          µM             12.3
3    O=Cc1ccc(-c2ccc(-c3ccc(C=O)[se]3)s2)s1          µM             25.7
4   OCc1ccc(-c2ccc(-c3ccc(CO)[se]3)s2)[se]1          µM               12
5       OCc1ccc(-c2ccc(-c3ccc[se]3)s2)[se]1          µM               20

## Task Form field: reported IC (TGI) of "OCc1ccc(-c2ccc(-c3ccc[se]3)[se]2)[se]1"
## Result 12.3

* * *

System: TK-10
assay: NCI human tumor cell panel: TK-10 (Renal Cancer)
Format: cell-based
measurement.context: TK-10, read-out: Log10 TGI (converted)
Rule: true for IC (TGI) not less than 200 nM, false for anything less.

Solved entries:
> print(dat)
                                  molecule  label
1   OCc1ccc(-c2ccc(-c3ccc[se]3)[se]2)[se]1   true
2     OCc1ccc(-c2ccc(-c3ccc(CO)[se]3)s2)s1  false
3  OCc1ccc(-c2ccc(-c3ccc(CO)[se]3)s2)[se]1  false
4      OCc1ccc(-c2ccc(-c3ccc[se]3)s2)[se]1   true
5   O=Cc1ccc(-c2ccc(-c3ccc(C=O)[se]3)s2)s1   true

## Task Decide: is the reported value of IC (TGI) for "OCc1ccc(-c2ccc(-c3ccc(CO)s3)[se]2)s1" equal to or greater than 200 nM?
## Result false

* * *

Tested on: MOLT-4
assay: NCI human tumor cell panel: MOLT-4 (Leukemia)
Format: cell-based
measurement.context: MOLT-4, Leukemia, read-out: Log10 GI50 (converted)
readout.name: GI50

Check out these entries, answers already filled in.
> print(dat)
                                   molecule  recorded.result
1  O=Cc1ccc(-c2ccc(-c3ccc(C=O)[se]3)s2)[se]1         > 100 µM
2          OCc1ccc(-c2ccc(-c3cccs3)[se]2)s1         > 100 µM
3         O=Cc1ccc(-c2ccc(-c3cccs3)[se]2)s1         > 100 µM
4  O=Cc1ccc(-c2ccc(-c3ccc(C=O)[se]3)[se]2)[se]1         > 100 µM

Give measured GI50 for every item shown.
1. O=Cc1ccc(-c2ccc(-c3ccc(C=O)s3)[se]2)s1
2. O=Cc1ccc(-c2ccc(-c3ccc[se]3)[se]2)[se]1

## Result
1. > 100 µM
2. 2.4 µM

* * *

Test system: OVCAR-5
assay: NCI human tumor cell panel: OVCAR-5 (Ovarian Cancer)
Format: cell-based
measurement.context: OVCAR-5, Ovarian Cancer, read-out: Log10 TGI (converted)
readout.name: IC (TGI) (nM)
Numbers only, in nM.

Please state, for each entry, its recorded IC (TGI).
1. O=Cc1ccc(-c2ccc(-c3ccc(C=O)s3)[se]2)s1 [NSC 675345]
2. O=Cc1ccc(-c2ccc(-c3cccs3)[se]2)s1 [NSC 675346]
3. OCc1ccc(-c2ccc(-c3cccs3)[se]2)s1 [NSC 675344]
4. O=Cc1ccc(-c2ccc(-c3ccc(C=O)[se]3)s2)[se]1 [NSC 676630]

## Result
1. 5370
2. 575
3. 87.1
4. 447

## Task Under OVCAR-5: IC (TGI) value of O=Cc1ccc(-c2ccc(-c3ccc[se]3)[se]2)[se]1 [NSC 675244] ?
## Result 13200

* * *

Tested on: 786-0
assay: NCI human tumor cell panel: 786-0 (Renal Cancer)
Assay type: cell-based
measurement.context: 786-0, read-out: Log10 GI50 (converted)
Assign GI50 to each entry below.

Look over these answered cases.
> print(dat)
                                  molecule  readout.name  recorded.result
1      OCc1ccc(-c2ccc(-c3ccc[se]3)s2)[se]1          GI50         > 100 µM
2  OCc1ccc(-c2ccc(-c3ccc(CO)[se]3)s2)[se]1          GI50         > 100 µM

Proceed to the following item.
## Task I am curious: what GI50 value has been reported for "OCc1ccc(-c2ccc(-c3ccc(CO)s3)[se]2)s1" ?
## Result > 100 µM

* * *

Tested on: RXF-393
assay: NCI human tumor cell panel: RXF-393 (Renal Cancer)
Format: cell-based
measurement.context: RXF-393, Renal Cancer, read-out: Log10 TGI (converted)
readout.name: IC (TGI)

Worked set:
> print(dat)
                                   molecule  readout.name  recorded.result
1    O=Cc1ccc(-c2ccc(-c3ccc(C=O)s3)[se]2)s1      IC (TGI)         > 100 µM
2  O=Cc1ccc(-c2ccc(-c3ccc(C=O)[se]3)s2)[se]1      IC (TGI)         > 100 µM

## Task If you can, please state the reported IC (TGI) value of "O=Cc1ccc(-c2ccc(-c3ccc(C=O)[se]3)[se]2)[se]1" .
## Result > 100 µM

* * *

Tested on: MDA-MB-435
assay: NCI human tumor cell panel: MDA-MB-435 (Breast Cancer)
Assay type: cell-based
measurement.context: MDA-MB-435, Breast Cancer, read-out: Log10 GI50 (converted)
readout.name: GI50

Worked cases, GI50 given:
> print(dat)
                                   molecule  recorded.result
1          OCc1ccc(-c2ccc(-c3cccs3)[se]2)s1         > 100 µM
2  O=Cc1ccc(-c2ccc(-c3ccc(C=O)[se]3)s2)[se]1         > 100 µM

Now take the following compound into account.
## Task // lookup GI50 for "O=Cc1ccc(-c2ccc(-c3ccc(C=O)[se]3)[se]2)[se]1"
## Result > 100 µM

* * *

Tested on: SR
assay: NCI human tumor cell panel: SR (Leukemia)
Type: cell-based
measurement.context: read-out: Log10 TGI (converted)
readout.name: IC (TGI) (µM)
Give bare numbers, in µM.

> print(dat)
                                   compound  recorded.result
1  O=Cc1ccc(-c2ccc(-c3ccc(C=O)[se]3)s2)s1 [compound 688829]             72.4

Turning to the following compound.
## Task # get_value(readout='IC (TGI)', item= OCc1ccc(-c2ccc(-c3ccc(CO)[se]3)s2)s1 [compound 688830] )
## Result 72.4

* * *

I'd be grateful if you could share measured GI50 for these entries.
System: SK-MEL-5
assay: NCI human tumor cell panel: SK-MEL-5 (Melanoma)
Format: cell-based
measurement.context: SK-MEL-5, Melanoma, read-out: Log10 GI50 (converted)

> print(dat)
                                   molecule  recorded.result
1          OCc1ccc(-c2ccc(-c3cccs3)[se]2)s1         > 100 µM
2  O=Cc1ccc(-c2ccc(-c3ccc(C=O)[se]3)s2)[se]1         > 100 µM

## Task I have this molecule here, "O=Cc1ccc(-c2ccc(-c3ccc(C=O)s3)[se]2)s1" , and I need its recorded GI50.
## Result > 100 µM

* * *

System: OVCAR-4
assay: NCI human tumor cell panel: OVCAR-4 (Ovarian Cancer)
Format: cell-based
measurement.context: OVCAR-4, Ovarian Cancer, read-out: Log10 TGI (converted)
Assignment: determine reported IC (TGI) for the given compounds.

Consider the following illustrative entries.
> print(dat)
                                   molecule  recorded.result
1          OCc1ccc(-c2ccc(-c3cccs3)[se]2)s1         > 100 µM
2  O=Cc1ccc(-c2ccc(-c3ccc(C=O)[se]3)[se]2)[se]1         > 100 µM

Consider now this further compound.
## Task So what does the record say about IC (TGI) for "O=Cc1ccc(-c2ccc(-c3ccc(C=O)s3)[se]2)s1" ?
## Result > 100 µM

* * *

Tested on: HOP-92
assay: NCI human tumor cell panel: HOP-92 (Non-Small Cell Lung Cancer)
measurement.context: HOP-92, read-out: Log10 TGI
readout.name: IC (TGI)

> print(dat)
                                   compound  readout.name  recorded.result
1  OCc1ccc(-c2ccc(-c3ccc(CO)[se]3)s2)s1 [compound 688830]      IC (TGI)         > 100 µM
2  O=Cc1ccc(-c2ccc(-c3ccc(C=O)[se]3)s2)s1 [compound 688829]      IC (TGI)         > 100 µM

As a next step, examine the compound that follows.
## Task What value of IC (TGI) on HOP-92 does OCc1ccc(-c2ccc(-c3ccc(CO)s3)[se]2)s1 [compound 675343] have?
## Result > 100 µM
